Reported values of CC50 for individual entries
test system: HL-60; test: Cytotoxicity against human HL60 cells after 48 hrs; format: functional; settings: HL-60, 48 h
All answers are understood in nM, so give the number only.

Some solved entries appear below for comparison.
molecule: O=C1/C(=C/c2ccccc2)CN(C(=O)CC(=O)N2C/C(=C\c3ccccc3)C(=O)/C(=C/c3ccccc3)C2)C/C1=C\c1ccccc1
test.system: HL-60
CC50, nM: 46
--
molecule: O=C1/C(=C/c2ccccc2)CN(C(=O)/C=C/C(=O)N2C/C(=C\c3ccccc3)C(=O)/C(=C/c3ccccc3)C2)C/C1=C\c1ccccc1
test.system: HL-60
CC50, nM: 1200
--
molecule: O=C1/C(=C/c2ccccc2)CN(C(=O)c2ccccc2C(=O)N2C/C(=C\c3ccccc3)C(=O)/C(=C/c3ccccc3)C2)C/C1=C\c1ccccc1
test.system: HL-60
CC50, nM: 110
--
molecule: O=C1/C(=C/c2ccccc2)CN(C(=O)CCCC(=O)N2C/C(=C\c3ccccc3)C(=O)/C(=C/c3ccccc3)C2)C/C1=C\c1ccccc1
test.system: HL-60
CC50, nM: 390
--
molecule: N[C@@H](Cc1ccc(N(CCCl)CCCl)cc1)C(=O)O [MELPHALAN]
test.system: HL-60
CC50, nM: 1400

Req: // lookup CC50 | system=HL-60 | key= O=C1/C(=C/c2ccccc2)CN(C(=O)C#CC(=O)N2C/C(=C\c3ccccc3)C(=O)/C(=C/c3ccccc3)C2)C/C1=C\c1ccccc1
Resp: 870

Req: Moving on to the next molecule: O=C1/C(=C/c2ccccc2)CN(C(=O)/C=C/C=C/C(=O)N2C/C(=C\c3ccccc3)C(=O)/C(=C/c3ccccc3)C2)C/C1=C\c1ccccc1
Resp: 7400

----------
Reported values of pIC50 for individual entries
tested on: RPMI-8226; experiment: Cytotoxicity against human RPMI8226 cells; format: functional, cell-based
Worth noting: pIC50 values are minus log10 of concentrations stated in mol/L.

smiles.string: O=C1/C(=C/c2ccccc2)CN(C(=O)CC(=O)N2C/C(=C\c3ccccc3)C(=O)/C(=C/c3ccccc3)C2)C/C1=C\c1ccccc1
pIC50: 6.89
--
smiles.string: O=C1/C(=C/c2ccccc2)CN(C(=O)c2cccc(C(=O)N3C/C(=C\c4ccccc4)C(=O)/C(=C/c4ccccc4)C3)c2)C/C1=C\c1ccccc1
pIC50: 6.14
--
smiles.string: O=C1/C(=C/c2ccccc2)CN(C(=O)c2ccccc2C(=O)N2C/C(=C\c3ccccc3)C(=O)/C(=C/c3ccccc3)C2)C/C1=C\c1ccccc1
pIC50: 7.22

Req: Fill blank: measured pIC50 of the molecule O=C1/C(=C/c2ccccc2)CN(C(=O)C(=O)N2C/C(=C\c3ccccc3)C(=O)/C(=C/c3ccccc3)C2)C/C1=C\c1ccccc1 is ____.
Resp: 6.60

Req: Moving on to the next molecule: O=C1/C(=C/c2ccccc2)CN(C(=O)CCC(=O)N2C/C(=C\c3ccccc3)C(=O)/C(=C/c3ccccc3)C2)C/C1=C\c1ccccc1
Resp: 7.22

Req: Moving on to the next molecule: O=C1/C(=C/c2ccccc2)CN(C(=O)/C=C/C(=O)N2C/C(=C\c3ccccc3)C(=O)/C(=C/c3ccccc3)C2)C/C1=C\c1ccccc1
Resp: 7.30

Req: Moving on to the next molecule: O=C1/C(=C/c2ccccc2)CN(C(=O)C#CC(=O)N2C/C(=C\c3ccccc3)C(=O)/C(=C/c3ccccc3)C2)C/C1=C\c1ccccc1
Resp: 7.10

----------
test system: HT-29; experiment: Cytotoxicity against human HT-29 cells; type: functional, cell-based
Reported values of pIC50 for individual entries
Worth noting: pIC50 values are minus log10 of concentrations stated in mol/L.

smiles.string: O=C1/C(=C/c2ccccc2)CN(C(=O)C(=O)N2C/C(=C\c3ccccc3)C(=O)/C(=C/c3ccccc3)C2)C/C1=C\c1ccccc1
pIC50: 6.77

smiles.string: O=C1/C(=C/c2ccccc2)CN(C(=O)C#CC(=O)N2C/C(=C\c3ccccc3)C(=O)/C(=C/c3ccccc3)C2)C/C1=C\c1ccccc1
pIC50: 6.70

smiles.string: O=C1/C(=C/c2ccccc2)CN(C(=O)c2cccc(C(=O)N3C/C(=C\c4ccccc4)C(=O)/C(=C/c4ccccc4)C3)c2)C/C1=C\c1ccccc1
pIC50: 6.26

smiles.string: O=C1/C(=C/c2ccccc2)CN(C(=O)c2ccccc2C(=O)N2C/C(=C\c3ccccc3)C(=O)/C(=C/c3ccccc3)C2)C/C1=C\c1ccccc1
pIC50: 6.77

smiles.string: O=C1/C(=C/c2ccccc2)CN(C(=O)CCC(=O)N2C/C(=C\c3ccccc3)C(=O)/C(=C/c3ccccc3)C2)C/C1=C\c1ccccc1
pIC50: 6.62

smiles.string: O=C1/C(=C/c2ccccc2)CN(C(=O)/C=C/C(=O)N2C/C(=C\c3ccccc3)C(=O)/C(=C/c3ccccc3)C2)C/C1=C\c1ccccc1
pIC50: 6.60

Req: // lookup pIC50 | system=HT-29 | key= O=C1/C(=C/c2ccccc2)CN(C(=O)CC(=O)N2C/C(=C\c3ccccc3)C(=O)/C(=C/c3ccccc3)C2)C/C1=C\c1ccccc1
Resp: 7.30

----------
system: SW-620; test: Cytotoxicity against human SW620 cells; assay type: functional, cell-based
I'd appreciate it if you marked entries yes when IC50 is lower than 0.3 µM and no when it is not.

Req: Problem: For the compound O=C1/C(=C/c2ccccc2)CN(C(=O)C(=O)N2C/C(=C\c3ccccc3)C(=O)/C(=C/c3ccccc3)C2)C/C1=C\c1ccccc1 , is IC50 under 0.3 µM?
Resp: yes

Req: Moving on to the next compound: O=C1/C(=C/c2ccccc2)CN(C(=O)/C=C/C(=O)N2C/C(=C\c3ccccc3)C(=O)/C(=C/c3ccccc3)C2)C/C1=C\c1ccccc1
Resp: yes

Req: Moving on to the next compound: O=C1/C(=C/c2ccccc2)CN(C(=O)C#CC(=O)N2C/C(=C\c3ccccc3)C(=O)/C(=C/c3ccccc3)C2)C/C1=C\c1ccccc1
Resp: yes

Req: Moving on to the next compound: O=c1[nH]cc(F)c(=O)[nH]1
Resp: no

Req: Moving on to the next compound: O=C1/C(=C/c2ccccc2)CN(C(=O)c2cccc(C(=O)N3C/C(=C\c4ccccc4)C(=O)/C(=C/c4ccccc4)C3)c2)C/C1=C\c1ccccc1
Resp: no

Req: Moving on to the next compound: O=C1/C(=C/c2ccccc2)CN(C(=O)CCC(=O)N2C/C(=C\c3ccccc3)C(=O)/C(=C/c3ccccc3)C2)C/C1=C\c1ccccc1
Resp: yes

Req: Moving on to the next compound: O=C1/C(=C/c2ccccc2)CN(C(=O)CC(=O)N2C/C(=C\c3ccccc3)C(=O)/C(=C/c3ccccc3)C2)C/C1=C\c1ccccc1
Resp: yes

----------
experiment: Cytotoxicity against human HPLF cells after 48 hrs; format: cell-based
Reported values of CC50 at 48 h for individual entries
All answers are understood in µM, so give the number only.

smiles.string: O=C1/C(=C/c2ccccc2)CN(C(=O)C#CC(=O)N2C/C(=C\c3ccccc3)C(=O)/C(=C/c3ccccc3)C2)C/C1=C\c1ccccc1
observed.result: 13
--
smiles.string: O=C1/C(=C/c2ccccc2)CN(C(=O)CCCCCCC(=O)N2C/C(=C\c3ccccc3)C(=O)/C(=C/c3ccccc3)C2)C/C1=C\c1ccccc1
observed.result: 17

Req: Fill blank: measured CC50 at 48 h of the compound O=C1/C(=C/c2ccccc2)CN(C(=O)CC(=O)N2C/C(=C\c3ccccc3)C(=O)/C(=C/c3ccccc3)C2)C/C1=C\c1ccccc1 is ____.
Resp: 1.3

Req: Moving on to the next compound: O=C1/C(=C/c2ccccc2)CN(C(=O)CCC(=O)N2C/C(=C\c3ccccc3)C(=O)/C(=C/c3ccccc3)C2)C/C1=C\c1ccccc1
Resp: 16

----------
target: ATP-dependent translocase ABCB1 (Homo sapiens, UniProt P08183); assay: Inhibition of human MDR1-mediated multidrug resistant in mouse L5178Y cells at 4 uM treated 10 mins before rhodamine 123 challenge measured after 20 mins relative to control; format: cell-based
Sequence (P08183 whole entry): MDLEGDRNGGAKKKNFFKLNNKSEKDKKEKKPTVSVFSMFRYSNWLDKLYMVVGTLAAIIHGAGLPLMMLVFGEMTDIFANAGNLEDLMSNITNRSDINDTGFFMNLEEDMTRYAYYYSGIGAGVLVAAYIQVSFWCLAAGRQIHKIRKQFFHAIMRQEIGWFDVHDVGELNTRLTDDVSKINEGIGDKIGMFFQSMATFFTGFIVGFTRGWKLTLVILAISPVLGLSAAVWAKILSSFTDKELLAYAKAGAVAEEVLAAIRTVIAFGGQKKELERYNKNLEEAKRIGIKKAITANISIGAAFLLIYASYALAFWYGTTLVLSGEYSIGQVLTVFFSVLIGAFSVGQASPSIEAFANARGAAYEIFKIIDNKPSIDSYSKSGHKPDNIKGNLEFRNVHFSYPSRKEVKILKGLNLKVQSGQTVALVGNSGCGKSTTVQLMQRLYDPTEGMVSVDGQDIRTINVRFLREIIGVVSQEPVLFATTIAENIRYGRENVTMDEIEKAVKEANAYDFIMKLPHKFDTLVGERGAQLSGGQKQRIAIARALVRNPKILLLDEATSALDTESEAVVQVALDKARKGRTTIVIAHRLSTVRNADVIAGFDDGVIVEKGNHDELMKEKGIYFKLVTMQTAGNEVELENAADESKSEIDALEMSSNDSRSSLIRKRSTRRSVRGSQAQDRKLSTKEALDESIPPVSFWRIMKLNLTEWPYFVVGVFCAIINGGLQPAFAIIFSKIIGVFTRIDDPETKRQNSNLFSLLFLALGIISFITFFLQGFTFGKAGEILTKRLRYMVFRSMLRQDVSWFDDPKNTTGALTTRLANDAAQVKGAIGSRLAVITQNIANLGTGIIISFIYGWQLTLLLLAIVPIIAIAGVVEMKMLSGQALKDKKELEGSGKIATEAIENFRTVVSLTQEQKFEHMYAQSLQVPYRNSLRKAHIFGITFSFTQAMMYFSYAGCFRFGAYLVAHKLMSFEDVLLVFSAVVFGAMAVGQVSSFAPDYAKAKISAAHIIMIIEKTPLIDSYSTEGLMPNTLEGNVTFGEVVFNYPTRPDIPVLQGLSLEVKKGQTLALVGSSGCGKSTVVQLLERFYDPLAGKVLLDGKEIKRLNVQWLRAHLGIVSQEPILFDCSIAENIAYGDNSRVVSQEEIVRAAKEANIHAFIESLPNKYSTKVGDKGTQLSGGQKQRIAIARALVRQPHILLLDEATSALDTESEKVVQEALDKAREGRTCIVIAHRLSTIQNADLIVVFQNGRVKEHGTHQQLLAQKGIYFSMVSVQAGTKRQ
Reported values of Ratio for individual entries
# respond with the number and nothing more

smiles.string: O=C1/C(=C/c2ccccc2)CN(C(=O)/C=C/C=C/C(=O)N2C/C(=C\c3ccccc3)C(=O)/C(=C/c3ccccc3)C2)C/C1=C\c1ccccc1
measured.property: Ratio
observed.result: 48.6

Req: Fill blank: measured Ratio of the compound O=C1/C(=C/c2ccccc2)CN(C(=O)/C=C/C(=O)N2C/C(=C\c3ccccc3)C(=O)/C(=C/c3ccccc3)C2)C/C1=C\c1ccccc1 is ____.
Resp: 37.2

Req: Moving on to the next compound: O=C1/C(=C/c2ccccc2)CN(C(=O)c2cccc(C(=O)N3C/C(=C\c4ccccc4)C(=O)/C(=C/c4ccccc4)C3)c2)C/C1=C\c1ccccc1
Resp: 38.9

Req: Moving on to the next compound: O=C1/C(=C/c2ccccc2)CN(C(=O)CC(=O)N2C/C(=C\c3ccccc3)C(=O)/C(=C/c3ccccc3)C2)C/C1=C\c1ccccc1
Resp: 35.3
